assay: tmax determined rat at 11 mg/kg, po; assay type: ADME, organism-based; design: dose 11 mg/kg, route oral; conditions: in vivo
PARAMETER: Tmax (h)
Numbers only, in h.

IN: What does the data say about its Tmax? Entry: `C[C@H](NC(=O)/C=C/c1ccccc1)c1cccc(N2CCOCC2)c1`
OUT: 5

* * *

test: Concentration determined in rat brain after 6 hr; assay type: ADME, organism-based
PARAMETER: concentration at 6 h
Answer format: number, then unit.

IN: What does the data say about its concentration at 6 h? Entry: `C[C@H](NC(=O)/C=C/c1ccccc1)c1cccc(N2CCOCC2)c1`
OUT: 631 ng/g

* * *

assay: Volume of distribution was determined in rat at 5 mg/kg, iv; assay type: ADME, organism-based; design: dose 5 mg/kg, route intravenous; conditions: in vivo, read-out: Vdss
PARAMETER: Vd (L/kg)
Numbers only, in L/kg.

IN: What does the data say about its Vd? Entry: `C[C@H](NC(=O)/C=C/c1ccccc1)c1cccc(N2CCOCC2)c1`
OUT: 2.5

// data source = ChEMBL document CHEMBL1145847
